target: COX-1 (Macaca mulatta); experiment: COX-1 whole-blood enzymatic immunoassay; settings: read-out: IC50 COX-1 Monkey, mean ± SD (n = 3)
readout: IC50 (nM)

> print(dat)
                                   compound  readout  measured
1  C[C@H](C(=O)O)c1cccc(C(=O)c2ccccc2)c1 [Inhibitor 4, (S)-ketoprofen, reference compound]     IC50        40
2  COc1ccc(-c2nc([S+]([O-])CF)nn2-c2ccc(OC)cc2)cc1 (centres unmarked)     IC50         5

P. COc1ccc(-n2nc(OC)nc2-c2ccccc2)cc1
Q. COc1ccc(-c2nc(SCF)nn2-c2ccc(OC)cc2)cc1
QUERY: Hey, between P and Q which has a smaller measured IC50? Which one? Tell me its label.
RESULT: P
(P: 3 nM, Q: 6.4 nM)

----------
biological target: COX-2 (Homo sapiens); test: COX-2 whole-blood enzymatic immunoassay; format: cell-based
pIC50: −log10 of the molar value.
readout: pIC50

> print(dat)
                                   compound  measured
1        COc1ccc(-n2nc(OCF)nc2-c2ccccc2)cc1      7.00
2  COc1ccc(-n2nc(C(F)(F)F)nc2-c2ccc(F)nc2)cc1    < 6.00
3  COc1ccc(-c2nc(S(=O)(=O)CF)nn2-c2ccc(OC)cc2)cc1    < 6.00
4    COc1ccc(-c2nc(SCF)nn2-c2ccc(OC)cc2)cc1    < 6.00

Here's the next entry for you.
QUERY: Using known records, supply pIC50 for COc1ccc(-c2nc([S+]([O-])CF)nn2-c2ccc(OC)cc2)cc1 (centres unmarked)
RESULT: < 6.00

----------
target: COX-1 (Homo sapiens); test: COX-1 whole-blood enzymatic immunoassay; assay type: cell-based; details: read-out: IC50 COX-1 Human; human whole blood; mean ± SD (n = 3)
Sequence (P23219 24-599): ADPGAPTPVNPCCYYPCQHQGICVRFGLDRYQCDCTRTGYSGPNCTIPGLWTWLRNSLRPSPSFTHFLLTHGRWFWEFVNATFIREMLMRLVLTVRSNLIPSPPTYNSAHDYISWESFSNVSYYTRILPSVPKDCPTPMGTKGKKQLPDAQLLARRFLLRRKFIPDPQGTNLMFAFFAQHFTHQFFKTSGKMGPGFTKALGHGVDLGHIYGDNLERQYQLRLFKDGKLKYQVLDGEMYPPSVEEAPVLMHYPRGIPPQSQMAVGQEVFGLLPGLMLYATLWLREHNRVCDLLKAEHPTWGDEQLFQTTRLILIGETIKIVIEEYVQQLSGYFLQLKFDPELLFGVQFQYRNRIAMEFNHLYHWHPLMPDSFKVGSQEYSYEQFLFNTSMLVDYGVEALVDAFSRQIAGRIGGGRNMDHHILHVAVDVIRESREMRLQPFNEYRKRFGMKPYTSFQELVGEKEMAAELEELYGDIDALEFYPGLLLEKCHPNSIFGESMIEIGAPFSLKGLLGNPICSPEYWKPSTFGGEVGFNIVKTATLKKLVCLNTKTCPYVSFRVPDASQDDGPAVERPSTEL
readout: IC50 (nM)
Expressed in nM, but write only the number.

QUERY: Write down measured IC50 (COX-1 (Homo sapiens)) for this compound. `COc1ccc(-n2nc(OC)nc2-c2ccccc2)cc1`
RESULT: 3

----------
biological target: COX-1 (Homo sapiens); assay: COX-1 whole-blood enzymatic immunoassay; assay type: cell-based
readout: IC50 (nM)

The cases that follow already have their IC50 on record.
> print(dat)
                                   compound  measured
1    COc1ccc(-c2nc(SCF)nn2-c2ccc(OC)cc2)cc1         5
2        COc1ccc(-n2nc(OCF)nc2-c2ccccc2)cc1       1.7
3  COc1ccc(-c2nc(S(=O)(=O)CF)nn2-c2ccc(OC)cc2)cc1         3

1. COc1ccc(-c2nc([S+]([O-])CF)nn2-c2ccc(OC)cc2)cc1 (centres unmarked)
2. COc1ccc(-n2nc(C(F)(F)F)nc2-c2ccc(F)nc2)cc1
QUERY: For 1 and 2 , which recorded IC50 is lower? Your answer should be the label of the entry you select.
RESULT: 2

----------
Target: COX-2 (Homo sapiens, UniProt P35354)
Sequence (P35354 18-604): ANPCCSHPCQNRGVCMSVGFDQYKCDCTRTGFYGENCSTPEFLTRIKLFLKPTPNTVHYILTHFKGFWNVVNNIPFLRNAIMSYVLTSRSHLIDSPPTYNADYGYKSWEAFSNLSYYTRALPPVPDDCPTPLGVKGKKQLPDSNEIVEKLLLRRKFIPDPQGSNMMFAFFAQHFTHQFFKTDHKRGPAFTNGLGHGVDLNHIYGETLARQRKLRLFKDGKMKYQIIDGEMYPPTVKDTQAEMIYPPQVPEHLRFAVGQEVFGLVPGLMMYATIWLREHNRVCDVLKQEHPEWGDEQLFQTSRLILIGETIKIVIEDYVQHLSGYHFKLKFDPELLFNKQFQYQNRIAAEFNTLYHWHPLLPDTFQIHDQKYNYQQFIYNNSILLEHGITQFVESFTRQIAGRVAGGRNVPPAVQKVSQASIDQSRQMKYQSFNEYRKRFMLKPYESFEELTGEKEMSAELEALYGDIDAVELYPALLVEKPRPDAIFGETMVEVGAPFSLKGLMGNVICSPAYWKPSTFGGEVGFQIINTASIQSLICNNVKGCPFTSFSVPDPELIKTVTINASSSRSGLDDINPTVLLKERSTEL
Assay: COX-2 whole-blood enzymatic immunoassay
Assay type: cell-based
Conditions: read-out: IC50 COX-2 Human; human whole blood; mean ± SD (n = 3)
pIC50: −log10 of the molar value.
readout: pIC50

QUERY: Answer with the recorded pIC50 for the compound listed here: COc1ccc(-n2nc(OC)nc2-c2ccccc2)cc1 [Inhibitor 31]
RESULT: < 6.00

----------
molecular target: COX-1 (Macaca mulatta, UniProt F6S984); assay: COX-1 whole-blood enzymatic immunoassay; details: read-out: IC50 COX-1 Monkey, mean ± SD (n = 3)
Sequence (F6S984 25-599): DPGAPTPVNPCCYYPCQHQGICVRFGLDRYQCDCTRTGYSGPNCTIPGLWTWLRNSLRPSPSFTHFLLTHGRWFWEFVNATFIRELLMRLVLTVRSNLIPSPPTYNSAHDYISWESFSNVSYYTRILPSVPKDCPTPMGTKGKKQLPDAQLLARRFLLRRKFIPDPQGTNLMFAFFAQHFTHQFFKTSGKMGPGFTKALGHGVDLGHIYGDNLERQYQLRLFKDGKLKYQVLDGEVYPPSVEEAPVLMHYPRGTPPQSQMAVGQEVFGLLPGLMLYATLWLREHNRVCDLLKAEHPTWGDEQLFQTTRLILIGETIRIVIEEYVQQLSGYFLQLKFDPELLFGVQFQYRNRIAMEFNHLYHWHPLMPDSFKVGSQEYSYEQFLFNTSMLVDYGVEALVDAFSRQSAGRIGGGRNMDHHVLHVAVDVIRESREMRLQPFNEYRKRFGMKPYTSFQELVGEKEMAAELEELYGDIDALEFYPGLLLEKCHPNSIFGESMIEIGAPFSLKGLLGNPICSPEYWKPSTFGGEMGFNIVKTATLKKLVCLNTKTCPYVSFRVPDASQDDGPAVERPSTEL
pIC50: −log10 of the molar value.
readout: pIC50

Known pIC50 results, listed for orientation:
> print(dat)
                                 chemsmiles  measured
1  COc1ccc(-c2nc(S(=O)(=O)CF)nn2-c2ccc(OC)cc2)cc1      7.60
2     COc1ccc(-c2nc(OC)nn2-c2ccc(OC)cc2)cc1      8.34
3  COc1ccc(-c2nc(OCC(F)(F)F)nn2-c2ccc(OC)cc2)cc1      9.00

A. COc1ccc(-n2nc(OCF)nc2-c2ccccc2)cc1
B. COc1ccc(-n2nc(C(F)(F)F)nc2-c2ccc(F)nc2)cc1
QUERY: Could you please tell me which of these two has the higher pIC50: A or B ? Lab note: record the label of whichever item you select.
RESULT: B

----------
molecular target: COX-2 (Macaca mulatta); test: COX-2 whole-blood enzymatic immunoassay; conditions: read-out: IC50 COX-2 Monkey, mean ± SD (n = 3)
Sequence (F7BWZ9 18-604): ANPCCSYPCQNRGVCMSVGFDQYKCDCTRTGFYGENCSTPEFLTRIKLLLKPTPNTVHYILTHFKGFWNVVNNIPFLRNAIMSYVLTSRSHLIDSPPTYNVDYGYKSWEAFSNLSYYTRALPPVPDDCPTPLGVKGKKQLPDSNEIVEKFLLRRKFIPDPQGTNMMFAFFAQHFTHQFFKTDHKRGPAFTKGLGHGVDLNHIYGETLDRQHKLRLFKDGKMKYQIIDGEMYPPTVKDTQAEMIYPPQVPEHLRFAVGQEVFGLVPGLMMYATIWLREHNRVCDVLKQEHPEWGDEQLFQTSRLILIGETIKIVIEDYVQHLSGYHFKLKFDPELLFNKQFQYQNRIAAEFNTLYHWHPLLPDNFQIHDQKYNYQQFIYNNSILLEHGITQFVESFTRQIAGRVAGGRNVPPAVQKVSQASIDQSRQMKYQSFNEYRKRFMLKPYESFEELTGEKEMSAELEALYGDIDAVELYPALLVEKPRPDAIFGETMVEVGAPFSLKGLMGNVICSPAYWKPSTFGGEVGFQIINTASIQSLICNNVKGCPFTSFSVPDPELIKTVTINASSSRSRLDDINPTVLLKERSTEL
pIC50: −log10 of the molar value.
readout: pIC50

> print(dat)
                                   molecule  measured
1  C[C@H](C(=O)O)c1cccc(C(=O)c2ccccc2)c1 [Inhibitor 4, (S)-ketoprofen, reference compound]      6.40

I. COc1cc(NCc2cccs2)nc(-c2ccc(S(C)(=O)=O)cc2)n1 [Inhibitor 34, reference compound]
II. COc1ccc(-c2nc([S+]([O-])CF)nn2-c2ccc(OC)cc2)cc1 (centres unmarked)
QUERY: Hi, I'm comparing two records. Which one has the lower pIC50, I or II ? # answer = label of selected item
RESULT: II
(II: 6.26, I: 9.00)

----------
Molecular target: COX-1 (Rattus norvegicus, UniProt Q63921)
Sequence (Q63921 27-602): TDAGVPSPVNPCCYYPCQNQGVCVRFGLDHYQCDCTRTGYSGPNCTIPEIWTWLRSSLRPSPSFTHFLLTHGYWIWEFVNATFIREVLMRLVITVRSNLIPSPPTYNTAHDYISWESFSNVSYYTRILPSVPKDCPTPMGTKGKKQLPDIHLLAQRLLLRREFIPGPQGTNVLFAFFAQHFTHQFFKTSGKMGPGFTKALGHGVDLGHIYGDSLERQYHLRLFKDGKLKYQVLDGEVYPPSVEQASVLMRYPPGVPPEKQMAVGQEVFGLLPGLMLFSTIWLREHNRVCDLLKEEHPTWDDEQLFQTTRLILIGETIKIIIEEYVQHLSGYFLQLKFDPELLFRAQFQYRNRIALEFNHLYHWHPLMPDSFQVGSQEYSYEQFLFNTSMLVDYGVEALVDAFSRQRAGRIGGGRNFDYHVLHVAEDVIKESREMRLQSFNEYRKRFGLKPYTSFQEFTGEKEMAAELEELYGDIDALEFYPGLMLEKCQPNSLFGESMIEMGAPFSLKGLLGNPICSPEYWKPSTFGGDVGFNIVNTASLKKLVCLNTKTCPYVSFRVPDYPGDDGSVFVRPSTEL
Assay: COX-1 whole-blood enzymatic immunoassay
readout: pIC50
As a rule, pIC50 stands for the negative log10 of the concentration, concentration in M.

QUERY: Identify measured pIC50 associated with `COc1ccc(-c2nc(OCC(F)(F)F)nn2-c2ccc(OC)cc2)cc1`
RESULT: 7.82
